In this section we review reported Percent Viability @ 1 μM (TZM-bl cells) values for a set of compounds.
# Tested on: TZM-bl cell line
# Format: cell-based
# TEST_CONTEXT: human, 1 μM
Respond numerically; units are % and should not be typed.

Look over these answered cases.
[[record]]
compound = "Oc1c(CC2CCOCC2)c(C2CC2)nn1-c1cc(C(F)(F)F)n[nH]1 [Compound I-622]"
test_system = "TZM-bl cell line"
metric_name = "Percent Viability @ 1 μM (TZM-bl cells)"
reported_value = 98.5

[[record]]
compound = "CS(=O)(=O)N1CCC(CCc2c(-c3ccc(C(F)(F)F)cn3)nn(-c3nc4cc(Br)ccc4[nH]3)c2O)CC1 [Compound I-775]"
test_system = "TZM-bl cell line"
metric_name = "Percent Viability @ 1 μM (TZM-bl cells)"
reported_value = 72.9

[[record]]
compound = "Cn1cc(-c2nn(-c3nc4ccccc4[nH]3)c(O)c2CCc2ccc(F)cc2)ccc1=O [Compound I-134]"
test_system = "TZM-bl cell line"
metric_name = "Percent Viability @ 1 μM (TZM-bl cells)"
reported_value = 100.5


Req: Specify Percent Viability @ 1 μM (TZM-bl cells) for Oc1c(CCn2cc(Cl)cn2)c(-c2ccc(C(F)(F)F)cc2)nn1-c1nc2ccccc2[nH]1 [Compound I-143] and stop.
Resp: 98.9

Where do the numbers come from? From patent US20220380341A1.
